measuredTarget: Matrilysin (Homo sapiens, UniProt P09237)
Sequence (P09237 whole entry): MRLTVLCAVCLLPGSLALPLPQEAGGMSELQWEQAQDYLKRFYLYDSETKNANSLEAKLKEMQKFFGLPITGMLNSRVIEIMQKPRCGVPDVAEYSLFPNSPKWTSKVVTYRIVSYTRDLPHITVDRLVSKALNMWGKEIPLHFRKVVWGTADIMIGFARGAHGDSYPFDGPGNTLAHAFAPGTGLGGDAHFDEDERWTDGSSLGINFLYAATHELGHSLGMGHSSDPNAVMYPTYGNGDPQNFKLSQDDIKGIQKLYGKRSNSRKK
measuredParameter: IC50

Consider the compound CCCCC(CN(O)C=O)C(=O)N[C@H](C(=O)N(C)C)C(C)(C)C (stereo partly specified) and give its recorded IC50. > 100 µM

* * *

measuredTarget: Stromelysin-1 (Homo sapiens, UniProt P08254)
Sequence (P08254 whole entry): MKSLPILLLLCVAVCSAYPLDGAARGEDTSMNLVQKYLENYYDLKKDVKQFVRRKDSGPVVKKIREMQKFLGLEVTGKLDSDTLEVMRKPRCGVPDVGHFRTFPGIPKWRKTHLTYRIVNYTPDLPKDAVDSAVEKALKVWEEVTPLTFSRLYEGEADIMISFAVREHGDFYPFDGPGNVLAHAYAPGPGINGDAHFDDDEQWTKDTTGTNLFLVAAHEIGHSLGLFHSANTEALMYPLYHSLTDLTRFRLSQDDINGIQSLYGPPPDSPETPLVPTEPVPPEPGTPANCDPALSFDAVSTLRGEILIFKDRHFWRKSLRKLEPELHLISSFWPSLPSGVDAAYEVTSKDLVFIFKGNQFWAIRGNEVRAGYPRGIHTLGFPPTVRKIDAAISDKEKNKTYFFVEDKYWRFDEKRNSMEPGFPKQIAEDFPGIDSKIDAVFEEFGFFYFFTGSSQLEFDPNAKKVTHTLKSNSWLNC
measuredParameter: IC50

[[record]]
structuresmiles = "CCCC[C@H](CN(O)C=O)C(=O)N[C@H](C(=O)N(C)C)C(C)(C)C"
measuredparameter = "IC50"
result = "> 100 µM"


Please examine the following record next.
Query IC50 for CCCCC[C@H](CC(=O)NO)C(=O)N[C@H](C(=O)N1CCC[C@H]1CO)C(C)C 6 µM

* * *

measuredTarget: Neprilysin (Homo sapiens, UniProt P08473)
Sequence (P08473 whole entry): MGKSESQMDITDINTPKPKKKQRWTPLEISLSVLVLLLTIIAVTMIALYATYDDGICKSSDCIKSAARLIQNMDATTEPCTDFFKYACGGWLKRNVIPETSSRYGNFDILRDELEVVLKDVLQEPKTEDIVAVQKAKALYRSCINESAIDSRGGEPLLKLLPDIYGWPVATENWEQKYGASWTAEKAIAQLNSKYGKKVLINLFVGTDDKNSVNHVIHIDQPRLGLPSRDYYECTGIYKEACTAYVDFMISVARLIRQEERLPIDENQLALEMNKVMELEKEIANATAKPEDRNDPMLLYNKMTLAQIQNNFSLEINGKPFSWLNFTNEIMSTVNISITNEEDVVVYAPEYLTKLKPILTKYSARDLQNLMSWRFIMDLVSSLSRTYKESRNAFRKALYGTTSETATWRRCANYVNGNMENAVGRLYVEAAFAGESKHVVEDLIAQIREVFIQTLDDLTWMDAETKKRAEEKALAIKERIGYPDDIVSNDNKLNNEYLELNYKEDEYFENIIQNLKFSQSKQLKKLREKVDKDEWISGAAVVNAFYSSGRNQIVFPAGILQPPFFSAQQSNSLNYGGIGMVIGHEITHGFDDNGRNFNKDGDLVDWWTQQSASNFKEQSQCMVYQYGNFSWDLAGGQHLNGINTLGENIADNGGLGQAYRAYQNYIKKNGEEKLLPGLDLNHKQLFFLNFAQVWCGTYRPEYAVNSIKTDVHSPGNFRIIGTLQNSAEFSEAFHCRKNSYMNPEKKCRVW
measuredParameter: pIC50
pIC50 here is simply -log10 of the concentration when that concentration is written in mol/L.

Please supply the value of reported pIC50 for the item CCCCC[C@H](CC(=O)NO)C(=O)N[C@H](C(=O)N1CCC[C@H]1CO)C(C)C [ACTINONIN] 5.17
